assay: Inhibitory concentration of compound (10:1 ratio of 10a/10b) against Alpha-glucosidase from Baker's yeast; parameters: species or system Saccharomyces cerevisiae
value type: IC50 (µM)
Expressed in µM, but write only the number.

Problem: May I ask what IC50 has been recorded for C[S+]1C[C@@H](O)[C@H](O)[C@H]1CO.[I-] (stereo partly specified) ?
Solution: 360

----------
experiment: Inhibitory concentration of compound (10:1 ratio of 10a/10b) against Alpha-mannosidase of Almond; design: species or system Prunus dulcis
value type: pIC50
pIC50 is a log-scale quantity: -log10 of the concentration expressed in molar.

Problem: May I ask what pIC50 has been recorded for C[S+]1C[C@@H](O)[C@H](O)[C@H]1CO.[I-] (stereo partly specified) ?
Solution: 2.68

----------
assay: Inhibitory concentration of compound (4:6 ratio of 10a/10b) against Alpha-glucosidase from Baker's yeast; set-up: species or system Saccharomyces cerevisiae
value type: pIC50
pIC50 is a log-scale quantity: -log10 of the concentration expressed in molar.

Problem: May I ask what pIC50 has been recorded for C[S+]1C[C@@H](O)[C@H](O)[C@H]1CO.[I-] (stereo partly specified) ?
Solution: 2.66

----------
assay: Inhibitory concentration of compound (4:6 ratio of 10a/10b) against Alpha-glucosidase from recombinant Saccharomyces cerevisiae
value type: IC50 (µM)
Expressed in µM, but write only the number.

Problem: May I ask what IC50 has been recorded for C[S+]1C[C@@H](O)[C@H](O)[C@H]1CO.[I-] (stereo partly specified) ?
Solution: 2100

----------
assay: Inhibitory concentration of compound (10:1 ratio of 10a/10b) against Alpha-glucosidase from rice
value type: pIC50
pIC50 is a log-scale quantity: -log10 of the concentration expressed in molar.

Problem: May I ask what pIC50 has been recorded for C[S+]1C[C@@H](O)[C@H](O)[C@H]1CO.[I-] (stereo partly specified) ?
Solution: 3.39

----------
assay: Inhibitory concentration of compound (4:6 ratio of 10a/10b) against Alpha-glucosidase from Bacillus stearothermophilus; parameters: species or system Geobacillus stearothermophilus
value type: pIC50
pIC50 is a log-scale quantity: -log10 of the concentration expressed in molar.

Problem: May I ask what pIC50 has been recorded for C[S+]1C[C@@H](O)[C@H](O)[C@H]1CO.[I-] (stereo partly specified) ?
Solution: 2.85

----------
assay: Inhibitory concentration of compound (4:6 ratio of 10a/10b) against Alpha-glucosidase from rice
value type: pIC50
pIC50 is a log-scale quantity: -log10 of the concentration expressed in molar.

Problem: May I ask what pIC50 has been recorded for C[S+]1C[C@@H](O)[C@H](O)[C@H]1CO.[I-] (stereo partly specified) ?
Solution: 2.70

----------
assay: Inhibitory concentration of compound against Alpha-glucosidase from rice
value type: IC50

smiles representation	value type	value observed
O=S(=O)([O-])O[C@H](CO)[C@@H](O)C[S+]1CCCC1	IC50	1000 µM

Problem: May I ask what IC50 has been recorded for `O=S(=O)([O-])O[C@H](CO)[C@@H](O)C[S@+]1C[C@@H](O)[C@H](O)[C@@H]1CO` ?
Solution: 380 µM

----------
experiment: Inhibitory concentration of compound (10:1 ratio of 10a/10b) against Alpha-glucosidase from recombinant Saccharomyces cerevisiae
value type: pIC50
pIC50 is a log-scale quantity: -log10 of the concentration expressed in molar.

Problem: May I ask what pIC50 has been recorded for C[S+]1C[C@@H](O)[C@H](O)[C@H]1CO.[I-] (stereo partly specified) ?
Solution: 3.31
